Data origin: patent US20240246964A1

studyTarget: human PD-L1 (Homo sapiens (Human), UniProt Q9NZQ7)
Sequence (Q9NZQ7 19-290): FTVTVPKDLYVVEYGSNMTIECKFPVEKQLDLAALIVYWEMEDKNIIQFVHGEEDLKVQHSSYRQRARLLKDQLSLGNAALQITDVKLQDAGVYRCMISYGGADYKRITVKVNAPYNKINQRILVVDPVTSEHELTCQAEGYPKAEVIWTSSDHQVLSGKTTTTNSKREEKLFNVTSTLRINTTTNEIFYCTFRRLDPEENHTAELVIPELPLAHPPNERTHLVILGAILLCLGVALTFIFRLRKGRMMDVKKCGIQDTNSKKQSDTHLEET
testMethodNotes: T cell activation luciferase reporter cell culture system (T Cell Activation Assay)
Format: cell-based
conditionInfo: luciferase reporter assay; PD-L1 aAPC/CHO-K1 cells with PD-1 effector Jurkat T cells
Okay, here is how we bin by EC50: lower level = under 20 nM, middle level = from 20 nM up to 90 nM, upper level = 90 nM and over

COc1nc(-c2cccc(-c3cncc(-c4ccc(CNC5CCN(C(C)=O)CC5)c(OC)n4)c3Cl)c2Cl)ccc1CNC1CCN(C(C)=O)CC1	middle level
COc1cc(-c2nccc(-c3cccc4c3CC[C@@H]4Oc3nc(OC)c(CN4CC5(CNC(=O)C5)C4)cc3C(F)(F)F)c2Cl)ccc1CN1CC2(CNC(=O)C2)C1	upper level
COc1cc(-c2nccc(-c3cccc(-c4ccc(CN(C)C5CCN(C(C)=O)CC5)c(OC)n4)c3Cl)c2Cl)ccc1CN(C)C1CCN(C(C)=O)CC1	upper level
COc1cc(-c2nccc(-c3cccc(-c4cnc(CNC5CCN(C(C)=O)CC5)c(OC)c4)c3Cl)c2Cl)ccc1CNC1CCN(C(C)=O)CC1	upper level
COc1nc(-c2cccc(-c3ccnc(-c4ccc(CN5CC6(CNC(=O)C6)C5)c(OC(F)F)c4)c3Cl)c2Cl)ccc1CN1CC2(C1)CN(C(C)=O)C2	lower level
COc1cc(-c2nccc(-c3cccc(-c4ccc(CN5CC6(CNC(=O)C6)C5)c(OC)n4)c3Cl)c2Cl)cnc1CN1CC2(CNC(=O)C2)C1	middle level
COc1cc(-c2nccc(-c3cccc(-c4ccc(CNC5CCOCC5)c(OC)n4)c3Cl)c2Cl)ccc1CN1CC2(CCOCC2)C1	middle level
CNCc1ccc(-c2cccc(-c3ccnc(-c4cc(CNC56CC(C(=O)O)(C5)C6)cc(OC)c4)c3Cl)c2Cl)nc1OC	upper level
COc1cc(-c2nccc(-c3cccc(-c4ccc(CNC5CCN(C(C)=O)CC5)c(OC)n4)c3Cl)c2Cl)ccc1CNC1CCN(S(C)(=O)=O)CC1	lower level

Asked: Textbook exercise: identify the category of the molecule given here, `COc1nc(-c2cccc(-c3ccnc(-c4ccc(CNC5CCN(C(C)=O)CC5)c(OC(F)F)c4)c3Cl)c2Cl)ccc1CNC1CCN(C(C)=O)CC1` , according to its measured value.
Given back: middle level
